test system: SaR1: Meticillin-Resistant Staphylococcus aureus without Associated Resistance; assay: Antibiogram, MIC by the VITEK 2 system; format: cell-based; conditions: Staphylococcus aureus; SaR1; Table D1; read-out: MIC
Listing of entries alongside the reported MIC.

Lab note: measured MIC of NC[C@H]1O[C@H](O[C@H]2[C@H](O)[C@@H](O[C@H]3O[C@H](CO)[C@@H](O)[C@H](N)[C@H]3O)[C@H](N)C[C@@H]2N)[C@H](N)C[C@@H]1O was ≤ 1 µg/mL

As a next step, examine the compound that follows.
Lab note: measured MIC of CC[C@H]1OC(=O)[C@H](C)[C@@H](O[C@H]2C[C@@](C)(OC)[C@@H](O)[C@H](C)O2)[C@H](C)[C@@H](O[C@@H]2O[C@H](C)C[C@H](N(C)C)[C@H]2O)[C@](C)(O)C[C@@H](C)C(=O)[C@H](C)[C@@H](O)[C@]1(C)O was ≤ 0.25 µg/mL
